- System: 898857-211-R-J1-PDC complex spheroids, growth % test/control
- experiment description: Anticancer human tumor 898857-211-R-J1-PDC patient-derived melanoma cell line growth inhibition [RAS]
- reported conditions: second compound 0.003 µM; first compound 0.316 µM; stronger effect = lower value
measurement label: viability, T/C

CCC(CC)c1cc(NC2CCC(N)C2)n2nccc2n1 (centres undefined) + CCn1c(-c2cccnc2C(C)OC)c2c3cc(ccc31)N1CCOC(CC(NC(=O)C(C(C)C)N(C)C(=O)C3(F)CCN(C(=O)C#CC(C)(C)N(C)C)CC3)C(=O)N3CCCC(N3)C(=O)OCC(C)(C)C2)C1 = 103%
C[C@@H](NC(=O)c1ncnc(N)c1Cl)c1ncc(C(=O)Nc2cc(C(F)(F)F)c(Cl)cn2)s1 + CCn1c(-c2cccnc2C(C)OC)c2c3cc(ccc31)N1CCOC(CC(NC(=O)C(C(C)C)N(C)C(=O)C3(F)CCN(C(=O)C#CC(C)(C)N(C)C)CC3)C(=O)N3CCCC(N3)C(=O)OCC(C)(C)C2)C1 = 103%
C=CC(=O)N1CCN(c2nc(OCC3CCCN3C)nc3c(F)c(-c4nc(N)cc(C)c4C(F)(F)F)c(Cl)cc23)C(C)C1 (centres undefined) + CCn1c(-c2cc(N3CCN(C)CC3)cnc2C(C)OC)c2c3cc(ccc31)-c1csc(n1)CC(NC(=O)C1CC1C)C(=O)N1CCCC(N1)C(=O)OCC(C)(C)C2 = 114%
CC(=O)OC12COC1CC(O)C1(C)C(=O)C(O)C3=C(C)C(OC(=O)C(O)C(NC(=O)OC(C)(C)C)c4ccccc4)CC(O)(C(OC(=O)c4ccccc4)C21)C3(C)C (centres undefined) + CCn1c(-c2cccnc2C(C)OC)c2c3cc(ccc31)N1CCOC(CC(NC(=O)C(C(C)C)N(C)C(=O)C3(F)CCN(C(=O)C#CC(C)(C)N(C)C)CC3)C(=O)N3CCCC(N3)C(=O)OCC(C)(C)C2)C1 = 11.4%

====

- Test system: 898857-211-R-J1-PDC complex spheroids, growth % test/control
- experiment description: Anticancer human tumor 898857-211-R-J1-PDC cell line growth inhibition [RAS];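 further: spheroids exposed to compound for seven days before readout; 100% = DMSO vehicle control wells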
- reported conditions: second compound 0.0316 µM; first compound 3.16 µM; stronger effect = lower value
measurement label: viability, T/C (%)

C[C@@H](NC(=O)c1ncnc(N)c1Cl)c1ncc(C(=O)Nc2cc(C(F)(F)F)c(Cl)cn2)s1 + C=CC(=O)N1CCN(c2nc(OCC3CCCN3C)nc3c(F)c(-c4nc(N)cc(C)c4C(F)(F)F)c(Cl)cc23)C(C)C1 = 71.2
C[C@@H](NC(=O)c1ncnc(N)c1Cl)c1ncc(C(=O)Nc2cc(C(F)(F)F)c(Cl)cn2)s1 + C#Cc1c(F)ccc2cc(O)cc(-c3ncc4c(N5CC6CCC(C5)N6)nc(OCC56CCCN5CC(F)C6)nc4c3F)c12 = 63
Cc1nc(N2CCC3(CC2)COC(C)C3N)c(CO)nc1Sc1ccnc(N)c1Cl (stereo not given) + C#Cc1c(F)ccc2cc(O)cc(-c3ncc4c(N5CC6CCC(C5)N6)nc(OCC56CCCN5CC(F)C6)nc4c3F)c12 = 89.8
NC1c2ccccc2OC12CCN(c1cnc3c(N4CCCc5ncccc54)n[nH]c3n1)CC2 (stereo not given) + C=CC(=O)N1CCN(c2nc(OCC3CCCN3C)nc3c(F)c(-c4nc(N)cc(C)c4C(F)(F)F)c(Cl)cc23)C(C)C1 = 87.3
Cc1nc(N2CCC3(CC2)COC(C)C3N)c(CO)nc1Sc1ccnc(N)c1Cl (stereo not given) + C=CC(=O)N1CCN(c2nc(OCC3CCCN3C)nc3c(F)c(-c4nc(N)cc(C)c4C(F)(F)F)c(Cl)cc23)C(C)C1 = 97.3
CC(=O)OC12COC1CC(O)C1(C)C(=O)C(O)C3=C(C)C(OC(=O)C(O)C(NC(=O)OC(C)(C)C)c4ccccc4)CC(O)(C(OC(=O)c4ccccc4)C21)C3(C)C (stereo not given) + C#Cc1c(F)ccc2cc(O)cc(-c3ncc4c(N5CC6CCC(C5)N6)nc(OCC56CCCN5CC(F)C6)nc4c3F)c12 = 26.6
NC1c2ccccc2OC12CCN(c1cnc3c(N4CCCc5ncccc54)n[nH]c3n1)CC2 (stereo not given) + C#Cc1c(F)ccc2cc(O)cc(-c3ncc4c(N5CC6CCC(C5)N6)nc(OCC56CCCN5CC(F)C6)nc4c3F)c12 = 91.5
CC1(O)CCCC1n1c(=O)c(C(F)F)cc2cnc(NC3CCN(S(C)(=O)=O)CC3)nc21 (stereo not given) + C=CC(=O)N1CCN(c2nc(OCC3CCCN3C)nc3c(F)c(-c4nc(N)cc(C)c4C(F)(F)F)c(Cl)cc23)C(C)C1 = 43.7
CC(Nc1ccc2c(c1)OCCn1cc(N3C(=O)OCC3C(F)F)nc1-2)C(N)=O (stereo not given) + C#Cc1c(F)ccc2cc(O)cc(-c3ncc4c(N5CC6CCC(C5)N6)nc(OCC56CCCN5CC(F)C6)nc4c3F)c12 = 97.8
CCC(CC)c1cc(NC2CCC(N)C2)n2nccc2n1 (stereo not given) + C#Cc1c(F)ccc2cc(O)cc(-c3ncc4c(N5CC6CCC(C5)N6)nc(OCC56CCCN5CC(F)C6)nc4c3F)c12 = 1.81
